- assay system: 5-HT1a (Homo sapiens, UniProt P08908)
- Construct: purchased Euroscreen/BioSignal Packard Inc
- Sequence (P08908 whole entry): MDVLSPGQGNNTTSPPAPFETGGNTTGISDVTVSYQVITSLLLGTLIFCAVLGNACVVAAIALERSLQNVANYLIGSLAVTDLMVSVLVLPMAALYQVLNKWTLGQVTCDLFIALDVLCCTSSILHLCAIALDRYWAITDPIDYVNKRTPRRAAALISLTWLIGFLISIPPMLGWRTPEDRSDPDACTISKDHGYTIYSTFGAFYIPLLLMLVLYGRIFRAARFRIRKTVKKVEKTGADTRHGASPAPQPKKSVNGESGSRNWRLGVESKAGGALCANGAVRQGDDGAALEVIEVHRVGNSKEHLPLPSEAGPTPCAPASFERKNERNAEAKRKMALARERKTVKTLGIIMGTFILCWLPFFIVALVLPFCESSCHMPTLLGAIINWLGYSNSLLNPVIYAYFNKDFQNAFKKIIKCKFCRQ
- measurement notes: Radioligand binding, 5-HT receptor family: 5-HT1a ([3H]8-OH-DPAT)
- experimental conditions: CHO-K1 human recombinant receptor, [3H]8-OH-DPAT 0.5 nM; read-out: Binding affinity, IC50 (nM), 5-HT1a
Listed compounds paired with reported IC50

- structure as smiles: "O=C1N(Cc2ccccc2)c2cc(Cl)cc(N3CCNCC3)c2S(=O)(=O)N1Cc1ccccc1"
  operator symbol: "="
  IC50 (nM): 5400
- structure as smiles: "CCN1C(=O)N(Cc2ccccc2)c2cc(Cl)cc(N3CCN(C)CC3)c2S1(=O)=O"
  operator symbol: "="
  IC50 (nM): 2620
- structure as smiles: "CN1CCN(c2cc(Cl)cc3c2S(=O)(=O)N(c2ccccc2)C(=O)N3Cc2ccccc2)CC1"
  operator symbol: "="
  IC50 (nM): 2080
- structure as smiles: "CN1CCN(c2cc(Cl)cc3c2S(=O)(=O)N(Cc2ccccc2)C(=O)N3Cc2ccccc2)CC1"
  operator symbol: "="
  IC50 (nM): 997
- structure as smiles: "COc1cccc(CN2C(=O)N(Cc3ccccc3)c3cc(Cl)cc(N4CCN(C)CC4)c3S2(=O)=O)c1"
  operator symbol: "="
  IC50 (nM): 1950
- structure as smiles: "Cc1cc(C)cc(CCCN2C(=O)N(Cc3ccccc3)c3cc(Cl)cc(N4CCNCC4)c3S2(=O)=O)c1"
  operator symbol: "="
  IC50 (nM): 1840
- structure as smiles: "CCCCCCCCN1C(=O)N(Cc2ccccc2)c2cc(Cl)cc(N3CCN(C)CC3)c2S1(=O)=O"
  operator symbol: "="
  IC50 (nM): 894
- structure as smiles: "COc1ccc(CN2C(=O)N(Cc3ccccc3)c3cc(Cl)cc(N4CCNCC4)c3S2(=O)=O)cc1"
  operator symbol: "="
  IC50 (nM): 3260
- structure as smiles: "COc1cccc(CN2C(=O)N(Cc3ccccc3)c3cc(Cl)cc(N4CCNCC4)c3S2(=O)=O)c1"
  operator symbol: "="
  IC50 (nM): 1860
- structure as smiles: "COc1ccc(CN2C(=O)N(Cc3ccccc3)c3cc(Cl)cc(N4CCN(C)CC4)c3S2(=O)=O)cc1"
  operator symbol: "="
  IC50 (nM): 3420
- structure as smiles: "C[C@H](c1ccccc1)N1C(=O)N(Cc2ccccc2)c2cc(Cl)cc(N3CCNCC3)c2S1(=O)=O"
  operator symbol: ">"
  IC50 (nM): 10000
- structure as smiles: "Cc1cc(C)cc(CCCN2C(=O)N(Cc3ccccc3)c3cc(Cl)cc(N4CCN(C)CC4)c3S2(=O)=O)c1"
  operator symbol: "="
  IC50 (nM): 3420
- structure as smiles: "COc1cccc(N2C(=O)N(Cc3ccccc3)c3cc(Cl)cc(N4CCNCC4)c3S2(=O)=O)c1"
  operator symbol: "="
  IC50 (nM): 926
- structure as smiles: "CN1CCN(c2cc(Cl)cc3c2S(=O)(=O)N(Cc2ccc(Cl)cc2)C(=O)N3Cc2ccccc2)CC1"
  operator symbol: "="
  IC50 (nM): 3910
- structure as smiles: "CN1CCN(c2cc(Cl)cc3c2S(=O)(=O)N(Cc2cccc(F)c2)C(=O)N3Cc2ccccc2)CC1"
  operator symbol: "="
  IC50 (nM): 5980

###

- assay system: Human serotonin 5-HT6 receptor (Homo sapiens, UniProt P50406)
- Sequence (P50406 whole entry): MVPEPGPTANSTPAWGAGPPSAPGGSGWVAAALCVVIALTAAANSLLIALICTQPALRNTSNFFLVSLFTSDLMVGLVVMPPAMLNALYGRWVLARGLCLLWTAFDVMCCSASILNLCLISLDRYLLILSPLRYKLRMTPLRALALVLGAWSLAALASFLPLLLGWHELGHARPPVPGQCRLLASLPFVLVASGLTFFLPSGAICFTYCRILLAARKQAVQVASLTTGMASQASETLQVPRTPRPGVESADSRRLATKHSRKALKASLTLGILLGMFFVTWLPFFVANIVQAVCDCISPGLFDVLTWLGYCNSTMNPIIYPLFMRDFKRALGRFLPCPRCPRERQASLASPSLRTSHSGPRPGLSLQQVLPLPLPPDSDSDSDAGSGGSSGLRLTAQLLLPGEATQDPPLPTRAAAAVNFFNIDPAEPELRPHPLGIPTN
- measurement notes: [3H]LSD binding assay on cloned 5-HT6 receptor
- experimental conditions: IC50 (nM), binding affinity to the 5-HT6 receptor, Table 2; 1.87 nM [3H]LSD, cloned human receptor membranes from Sf21 cells, 37° C. 60 min
Listed compounds paired with reported IC50

- compound: "C[C@@H](c1ccccc1)N1C(=O)N(Cc2ccccc2)c2cc(Cl)cc(N3CCN(C)CC3)c2S1(=O)=O [Example 26]"
  assay system: "Human serotonin 5-HT6 receptor (Homo sapiens, UniProt P50406)"
  IC50 (nM): 2.4
- compound: "CN1CCN(c2cc(Cl)cc3c2S(=O)(=O)N(Cc2ccncc2)C(=O)N3Cc2ccccc2)CC1 [Example 42]"
  assay system: "Human serotonin 5-HT6 receptor (Homo sapiens, UniProt P50406)"
  IC50 (nM): 7.7
- compound: "N#Cc1ccc(CN2C(=O)N(Cc3ccccc3)c3cc(Cl)cc(N4CCNCC4)c3S2(=O)=O)cc1 [Example 57]"
  assay system: "Human serotonin 5-HT6 receptor (Homo sapiens, UniProt P50406)"
  IC50 (nM): 18
- compound: "O=C1N(Cc2ccccc2)c2cc(Cl)cc(N3CCNCC3)c2S(=O)(=O)N1Cc1ccccc1F [Example 45]"
  assay system: "Human serotonin 5-HT6 receptor (Homo sapiens, UniProt P50406)"
  IC50 (nM): 18.7

###

- assay system: hD3 receptor (Homo sapiens, UniProt P35462)
- Construct: purchased BioSignal Packard Inc., Montreal, Canada
- Sequence (P35462 whole entry): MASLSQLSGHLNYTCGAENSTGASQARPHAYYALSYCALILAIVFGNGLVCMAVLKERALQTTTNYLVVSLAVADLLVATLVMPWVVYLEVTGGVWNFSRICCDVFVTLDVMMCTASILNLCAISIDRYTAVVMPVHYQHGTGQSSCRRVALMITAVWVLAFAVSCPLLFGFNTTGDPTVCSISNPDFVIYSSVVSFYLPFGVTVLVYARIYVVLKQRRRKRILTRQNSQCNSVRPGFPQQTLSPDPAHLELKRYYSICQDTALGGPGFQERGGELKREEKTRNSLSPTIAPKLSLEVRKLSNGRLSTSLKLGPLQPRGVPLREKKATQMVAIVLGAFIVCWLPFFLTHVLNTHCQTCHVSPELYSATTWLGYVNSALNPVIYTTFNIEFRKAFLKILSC
- measurement notes: Dopamine receptor family binding: D3 ([3H]spiperone)
- experimental conditions: [3H]spiperone 1 nM; read-out: Binding affinity, IC50 (nM), D3
quantity: log10 IC50 (log10 of the value in nM)

- structure as smiles: "CN1CCN(c2cc(Cl)cc3c2S(=O)(=O)N(Cc2cccc4ccccc24)C(=O)N3Cc2ccccc2)CC1"
  result number: 2.62
- structure as smiles: "CN1CCN(c2cc(Cl)cc3c2S(=O)(=O)N(Cc2ccccc2Cl)C(=O)N3Cc2ccccc2)CC1"
  result number: 1.97
- structure as smiles: "CN1CCN(c2cc(Cl)cc3c2S(=O)(=O)N(Cc2ccccc2)C(=O)N3Cc2ccccc2)CC1"
  result number: 2.80
- structure as smiles: "COc1cccc(CN2C(=O)N(Cc3ccccc3)c3cc(Cl)cc(N4CCNCC4)c3S2(=O)=O)c1"
  result number: 2.73
- structure as smiles: "O=C1N(Cc2ccccc2)c2cc(Cl)cc(N3CCNCC3)c2S(=O)(=O)N1Cc1ccccc1"
  result number: 3.08
- structure as smiles: "COc1ccc(CN2C(=O)N(Cc3ccccc3)c3cc(Cl)cc(N4CCN(C)CC4)c3S2(=O)=O)cc1"
  result number: 3.09
- structure as smiles: "CN1CCN(c2cc(Cl)cc3c2S(=O)(=O)N(Cc2ccccc2F)C(=O)N3Cc2ccccc2)CC1"
  result number: 2.59

###

- assay system: D1 (Homo sapiens)
- Sequence (P21728 whole entry): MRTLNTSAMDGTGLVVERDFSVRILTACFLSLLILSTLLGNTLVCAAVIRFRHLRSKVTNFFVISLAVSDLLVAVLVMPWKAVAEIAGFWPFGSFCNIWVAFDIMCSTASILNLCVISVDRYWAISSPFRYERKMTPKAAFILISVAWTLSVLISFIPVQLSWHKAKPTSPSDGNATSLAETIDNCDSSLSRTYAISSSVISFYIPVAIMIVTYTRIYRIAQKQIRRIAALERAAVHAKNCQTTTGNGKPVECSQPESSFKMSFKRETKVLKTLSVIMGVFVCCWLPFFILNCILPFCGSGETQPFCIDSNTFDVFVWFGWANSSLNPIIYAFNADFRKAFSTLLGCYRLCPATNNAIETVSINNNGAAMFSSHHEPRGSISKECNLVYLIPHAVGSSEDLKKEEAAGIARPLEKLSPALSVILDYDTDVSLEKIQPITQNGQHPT
- measurement notes: Dopamine receptor family binding: D1
- experimental conditions: read-out: Binding affinity, IC50 (nM), D1
quantity: IC50 (nM)

- structure as smiles: "COc1ccc(CN2C(=O)N(Cc3ccccc3)c3cc(Cl)cc(N4CCNCC4)c3S2(=O)=O)cc1"
  quantity: "IC50"
  endpoint unit: "nM"
  operator symbol: ">"
  result number: 10000
- structure as smiles: "Cc1cc(C)cc(CCCN2C(=O)N(Cc3ccccc3)c3cc(Cl)cc(N4CCN(C)CC4)c3S2(=O)=O)c1"
  quantity: "IC50"
  endpoint unit: "nM"
  operator symbol: "="
  result number: 918
- structure as smiles: "CN1CCN(c2cc(Cl)cc3c2S(=O)(=O)N(c2ccccc2)C(=O)N3Cc2ccccc2)CC1"
  quantity: "IC50"
  endpoint unit: "nM"
  operator symbol: "="
  result number: 2690
- structure as smiles: "O=C1N(Cc2ccccc2)c2cc(Cl)cc(N3CCNCC3)c2S(=O)(=O)N1Cc1ccccc1"
  quantity: "IC50"
  endpoint unit: "nM"
  operator symbol: "="
  result number: 6390
- structure as smiles: "C[C@H](c1ccccc1)N1C(=O)N(Cc2ccccc2)c2cc(Cl)cc(N3CCN(C)CC3)c2S1(=O)=O"
  quantity: "IC50"
  endpoint unit: "nM"
  operator symbol: "="
  result number: 963
- structure as smiles: "COc1cccc(CN2C(=O)N(Cc3ccccc3)c3cc(Cl)cc(N4CCNCC4)c3S2(=O)=O)c1"
  quantity: "IC50"
  endpoint unit: "nM"
  operator symbol: "="
  result number: 3140
- structure as smiles: "CN1CCN(c2cc(Cl)cc3c2S(=O)(=O)N(Cc2ccccc2)C(=O)N3Cc2ccccc2)CC1"
  quantity: "IC50"
  endpoint unit: "nM"
  operator symbol: "="
  result number: 3050
- structure as smiles: "COc1cccc(CN2C(=O)N(Cc3ccccc3)c3cc(Cl)cc(N4CCN(C)CC4)c3S2(=O)=O)c1"
  quantity: "IC50"
  endpoint unit: "nM"
  operator symbol: "="
  result number: 4730
- structure as smiles: "C[C@@H](c1ccccc1)N1C(=O)N(Cc2ccccc2)c2cc(Cl)cc(N3CCNCC3)c2S1(=O)=O"
  quantity: "IC50"
  endpoint unit: "nM"
  operator symbol: "="
  result number: 4100
- structure as smiles: "C[C@@H](c1ccccc1)N1C(=O)N(Cc2ccccc2)c2cc(Cl)cc(N3CCN(C)CC3)c2S1(=O)=O"
  quantity: "IC50"
  endpoint unit: "nM"
  operator symbol: "="
  result number: 1760
- structure as smiles: "C[C@H](c1ccccc1)N1C(=O)N(Cc2ccccc2)c2cc(Cl)cc(N3CCNCC3)c2S1(=O)=O"
  quantity: "IC50"
  endpoint unit: "nM"
  operator symbol: "="
  result number: 1780
- structure as smiles: "COc1ccc(CN2C(=O)N(Cc3ccccc3)c3cc(Cl)cc(N4CCN(C)CC4)c3S2(=O)=O)cc1"
  quantity: "IC50"
  endpoint unit: "nM"
  operator symbol: ">"
  result number: 10000
- structure as smiles: "Cc1cc(C)cc(CCCN2C(=O)N(Cc3ccccc3)c3cc(Cl)cc(N4CCNCC4)c3S2(=O)=O)c1"
  quantity: "IC50"
  endpoint unit: "nM"
  operator symbol: "="
  result number: 1180
- structure as smiles: "COc1cccc(N2C(=O)N(Cc3ccccc3)c3cc(Cl)cc(N4CCNCC4)c3S2(=O)=O)c1"
  quantity: "IC50"
  endpoint unit: "nM"
  operator symbol: "="
  result number: 5590
- structure as smiles: "O=C1N(Cc2ccccc2)c2cc(Cl)cc(N3CCNCC3)c2S(=O)(=O)N1Cc1cccc(O)c1"
  quantity: "IC50"
  endpoint unit: "nM"
  operator symbol: "="
  result number: 4100
